Molecular target: T1, Hof1, Q05080
T1 sequence (Q05080 590-669, looked up): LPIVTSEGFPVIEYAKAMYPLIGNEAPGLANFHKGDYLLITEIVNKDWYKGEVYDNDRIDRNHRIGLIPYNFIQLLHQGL
Experiment: SPOT array
Conditions: median of control spots 4086
Kindly state SPOT intensity for each of the entries shown.
One number for each entry.

Example cases with answers are listed next.
# Binder, SPOT intensity
measured = [
    ("SLSRRRFSLPSMPNV", 77),
    ("NGRRRPKFRVQLSGN", 24),
]

Take each entry in turn and give its SPOT intensity.
1. LTRRFPFLFPFDTRM
2. TKIRRRPQQPLTDFT
3. TSIEIPKRSPLRFTS
4. TYNRTAFQIPGDQSI

Output line:
[116, 0, 0, 0]

Per the records, this binder ( DLFKPLPEPPTELGR ) has SPOT intensity equal to 2
